experiment: Single dose PK in healthy subjects (Cohorts 1, 2, S1 and S2), plasma; type: in vivo, human; conditions: human, plasma, iv, 56 mg, 56 mg single IV infusion, healthy subjects; read-out: tmax Mean
metric: Tmax (h)

| smiles-notation | units-label | readout-value |
| --- | --- | --- |
| COC(=O)N1CCC[C@H](NS(C)(=O)=O)[C@@H]1CO[C@H]1CC[C@@H](c2ccccc2)CC1 | h | 4.5 |

---

test: Single dose PK in healthy subjects (Cohorts 1, 2, S1 and S2), plasma; assay type: in vivo, human; conditions: human, plasma, intravenous, 14 mg; 4 hr; read-out: Plasma concentration, Q1

| smiles-notation | concentration at 4 h [ng/mL] |
| --- | --- |
| COC(=O)N1CCC[C@H](NS(C)(=O)=O)[C@@H]1CO[C@H]1CC[C@@H](c2ccccc2)CC1 | 33 |

---

test: Single dose PK in healthy subjects (Cohorts 1, 2, S1 and S2), plasma; type: in vivo, human; settings: human, plasma, intravenous, 112 mg; 9 hr; read-out: Plasma concentration, Median

| molecule | concentration at 9 h, ng/mL |
| --- | --- |
| COC(=O)N1CCC[C@H](NS(C)(=O)=O)[C@@H]1CO[C@H]1CC[C@@H](c2ccccc2)CC1 [Compound A] | 221 |

---

assay: Single dose PK in healthy subjects (Cohorts 1, 2, S1 and S2), plasma; assay type: in vivo, human; conditions: human, plasma, iv, 7 mg, 7 mg single IV infusion, healthy subjects; read-out: Cmax Median

| smiles-notation | Cmax [ng/mL] |
| --- | --- |
| COC(=O)N1CCC[C@H](NS(C)(=O)=O)[C@@H]1CO[C@H]1CC[C@@H](c2ccccc2)CC1 | 16.5 |

---

assay: Single dose PK in patients with narcolepsy (Cohorts 5, 6 and 7), plasma; type: in vivo, human; conditions: human, plasma, iv, 11.2 mg; 6 hr; NT1, single 9 h IV infusion; read-out: Plasma concentration, Mean
metric: concentration at 6 h (ng/mL)

| compound | metric | units-label | readout-value |
| --- | --- | --- | --- |
| COC(=O)N1CCC[C@H](NS(C)(=O)=O)[C@@H]1CO[C@H]1CC[C@@H](c2ccccc2)CC1 [Compound A] | concentration at 6 h | ng/mL | 19.5 |

---

experiment: Single dose PK in healthy subjects (Cohorts 1, 2, S1 and S2), plasma; type: in vivo, human; details: human, plasma, intravenous, 180 mg; 9 hr; read-out: Plasma concentration, Minimum
metric: concentration at 9 hr

| compound | metric | readout-value |
| --- | --- | --- |
| COC(=O)N1CCC[C@H](NS(C)(=O)=O)[C@@H]1CO[C@H]1CC[C@@H](c2ccccc2)CC1 [Compound A] | concentration at 9 hr | 285 ng/mL |

---

experiment: Single dose PK in healthy subjects (Cohorts 1, 2, S1 and S2), plasma; assay type: in vivo, human; settings: human, plasma, iv, 28 mg, 28 mg single IV infusion, healthy subjects; read-out: AUC24 Mean
metric: AUC (ng·h/mL)

| compound | readout-value |
| --- | --- |
| COC(=O)N1CCC[C@H](NS(C)(=O)=O)[C@@H]1CO[C@H]1CC[C@@H](c2ccccc2)CC1 [Compound A] | 519 |

---

test: Single dose PK in healthy subjects (Cohorts 1, 2, S1 and S2), plasma; type: in vivo, human; conditions: human, plasma, iv, 240 mg, 240 mg single IV infusion; 8 hr; read-out: Plasma Concentration of Cmpd A, Maximum
metric: concentration at 8 h (ng/mL)

| smiles-notation | units-label | readout-value |
| --- | --- | --- |
| COC(=O)N1CCC[C@H](NS(C)(=O)=O)[C@@H]1CO[C@H]1CC[C@@H](c2ccccc2)CC1 | ng/mL | 562 |

---

assay: Single dose PK in healthy subjects (Cohorts 1, 2, S1 and S2), plasma; type: in vivo, human; conditions: human, plasma, iv, 240 mg, 240 mg single IV infusion; 10 hr After End of Infusions; read-out: Plasma Concentration of Cmpd A, Q3
Description: […]
metric: concentration at 10 h after end of infusion (ng/mL)

| smiles-notation | units-label | readout-value |
| --- | --- | --- |
| COC(=O)N1CCC[C@H](NS(C)(=O)=O)[C@@H]1CO[C@H]1CC[C@@H](c2ccccc2)CC1 | ng/mL | 17.5 |

---

assay: Single dose PK in healthy subjects (Cohorts 1, 2, S1 and S2), plasma; format: in vivo, human; settings: human, plasma, intravenous, 134.4 mg; 2 hr; read-out: Plasma concentration, Q3
metric: concentration at 2 h (ng/mL)

| molecule | readout-value |
| --- | --- |
| COC(=O)N1CCC[C@H](NS(C)(=O)=O)[C@@H]1CO[C@H]1CC[C@@H](c2ccccc2)CC1 [Compound A] | 276 |

---

assay: Single dose PK in healthy subjects (Cohorts 1, 2, S1 and S2), plasma; type: in vivo, human; settings: human, plasma, intravenous, 7 mg; 0.5 hr After End of Infusion; read-out: Plasma concentration, Minimum
metric: concentration at 0.5 h after end of infusion

| smiles-notation | readout-value |
| --- | --- |
| COC(=O)N1CCC[C@H](NS(C)(=O)=O)[C@@H]1CO[C@H]1CC[C@@H](c2ccccc2)CC1 | 6.1 ng/mL |

---

assay: Single dose PK in healthy subjects (Cohorts 1, 2, S1 and S2), plasma; type: in vivo, human; conditions: human, plasma, intravenous, 7 mg; 1.5 hr; read-out: Plasma concentration, Q3

| smiles-notation | concentration at 1.5 h, ng/mL |
| --- | --- |
| COC(=O)N1CCC[C@H](NS(C)(=O)=O)[C@@H]1CO[C@H]1CC[C@@H](c2ccccc2)CC1 | 14 |

---

assay: Single dose PK in patients with narcolepsy (Cohorts 5, 6 and 7), plasma; assay type: in vivo, human; conditions: human, plasma, intravenous, 44.8 mg, Cmpd A 44.8 mg; Median; Cohort 5, 6, 7; read-out: CL (converted)

| smiles-notation | units-label | clearance |
| --- | --- | --- |
| COC(=O)N1CCC[C@H](NS(C)(=O)=O)[C@@H]1CO[C@H]1CC[C@@H](c2ccccc2)CC1 | mL/min | 809 |

---

test: Single dose PK in healthy subjects (Cohorts 1, 2, S1 and S2), plasma; type: in vivo, human; details: human, plasma, iv, 240 mg, 240 mg single IV infusion; 8 hr; read-out: Plasma Concentration of Cmpd A, Q3
metric: concentration at 8 hr (ng/mL)

| smiles-notation | metric | units-label | readout-value |
| --- | --- | --- | --- |
| COC(=O)N1CCC[C@H](NS(C)(=O)=O)[C@@H]1CO[C@H]1CC[C@@H](c2ccccc2)CC1 | concentration at 8 hr | ng/mL | 542 |

---

test: Single dose PK in healthy subjects (Cohorts 1, 2, S1 and S2), plasma; format: in vivo, human; conditions: human, plasma, iv, 240 mg, 240 mg single IV infusion; 4 hr After End of Infusions; read-out: Plasma Concentration of Cmpd A, Q3
Excerpt: […]
metric: concentration at 4 h after end of infusion (ng/mL)

| smiles-notation | readout-value |
| --- | --- |
| COC(=O)N1CCC[C@H](NS(C)(=O)=O)[C@@H]1CO[C@H]1CC[C@@H](c2ccccc2)CC1 | 62.7 |

---

assay: Single dose PK in healthy subjects (Cohorts 1, 2, S1 and S2), plasma; format: in vivo, human; conditions: human, plasma, iv, 240 mg, 240 mg single IV infusion, healthy subjects; read-out: AUCinf Mean

| molecule | AUC(0-inf) [ng·h/mL] |
| --- | --- |
| COC(=O)N1CCC[C@H](NS(C)(=O)=O)[C@@H]1CO[C@H]1CC[C@@H](c2ccccc2)CC1 [Compound A] | 4630 |

---

assay: Single dose PK in healthy subjects (Cohorts 1, 2, S1 and S2), plasma; assay type: in vivo, human; details: human, plasma, intravenous, 14 mg; 9 hr; read-out: Plasma concentration, Minimum

| smiles-notation | units-label | concentration at 9 h |
| --- | --- | --- |
| COC(=O)N1CCC[C@H](NS(C)(=O)=O)[C@@H]1CO[C@H]1CC[C@@H](c2ccccc2)CC1 | ng/mL | 22.8 |

---

test: Single dose PK in healthy subjects (Cohorts 1, 2, S1 and S2), plasma; type: in vivo, human; details: human, plasma, intravenous, 7 mg; 6 hr; read-out: Plasma concentration, Maximum

| compound | concentration at 6 h |
| --- | --- |
| COC(=O)N1CCC[C@H](NS(C)(=O)=O)[C@@H]1CO[C@H]1CC[C@@H](c2ccccc2)CC1 [Compound A] | 15.9 ng/mL |

---

experiment: Single dose PK in healthy subjects (Cohorts 1, 2, S1 and S2), plasma; type: in vivo, human; conditions: human, plasma, iv, 240 mg, 240 mg single IV infusion, healthy subjects; read-out: Ceoi Median
Excerpt: […]

| smiles-notation | concentration at 9 h, ng/mL |
| --- | --- |
| COC(=O)N1CCC[C@H](NS(C)(=O)=O)[C@@H]1CO[C@H]1CC[C@@H](c2ccccc2)CC1 | 481 |
